biological target: NNMT (Homo sapiens); test: NNMT assay (HILIC-MS/MS, formation of MNA); settings: IC50 values (μM), Table 9, compounds CM035 and CM037; NA 200 μM, SAM 8.5 μM
Sequence (P40261 whole entry, species assumed): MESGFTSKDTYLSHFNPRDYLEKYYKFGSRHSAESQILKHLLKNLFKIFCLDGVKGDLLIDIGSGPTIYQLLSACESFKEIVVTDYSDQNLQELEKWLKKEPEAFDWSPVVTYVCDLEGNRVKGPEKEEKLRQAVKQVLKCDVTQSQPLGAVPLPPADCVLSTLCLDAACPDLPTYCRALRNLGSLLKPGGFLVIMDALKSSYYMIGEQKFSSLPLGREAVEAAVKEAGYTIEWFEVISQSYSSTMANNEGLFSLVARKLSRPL
MEASURED_METRIC: IC50 (µM)

[[record]]
smiles_notation = "CC(=O)N(C/C=C/c1ccc(C#N)cc1)C[C@H]1C[C@@H](n2ccc3c(N)ncnc32)[C@H](O)[C@@H]1O"
recorded_result = 0.26

[[record]]
smiles_notation = "CC(=O)N(C/C=C/c1ccc(C#N)cc1)C[C@H]1C[C@@H](n2ccc3c(Cl)ncnc32)[C@H](O)[C@@H]1O"
recorded_result = 3.58

